test system: U-251; experiment: Cytotoxicity against human U251 cells assessed as cell growth at 10 uM after 48 hrs by SRB assay relative to control; format: functional; details: U-251, 48 h, read-out: Activity
measured-property: growth at 10 µM (%)
The figure you give is taken to be in %; do not add the unit.

If you can, please state the reported growth at 10 µM value of Cn1cc(C2=C(c3c[nH]c4ccccc34)C(=O)N(O)C2=O)c2ccccc21 . 98.5

If you can, please state the reported growth at 10 µM value of O=C1C2=C(C(=O)N1O)c1cn(c3ccccc13)CCCCCCn1cc2c2ccccc21 . 106

If you can, please state the reported growth at 10 µM value of O=C(O)CCCCCn1cc(C2=C(c3c[nH]c4ccccc34)C(=O)N(O)C2=O)c2ccccc21 . 102

If you can, please state the reported growth at 10 µM value of Cn1cc(C2=C(c3cn(CCCCCC(=O)O)c4ccccc34)C(=O)N(O)C2=O)c2ccccc21 . 102

If you can, please state the reported growth at 10 µM value of CC(C)n1cc(C2=C(c3c[nH]c4ccccc34)C(=O)N(O)C2=O)c2ccccc21 . 100

If you can, please state the reported growth at 10 µM value of Cn1cc(C2=C(c3cn(C)c4ccccc34)C(=O)N(O)C2=O)c2ccccc21 . 91.4

If you can, please state the reported growth at 10 µM value of CC(C)n1cc(C2=C(c3cn(C)c4ccccc34)C(=O)N(O)C2=O)c2ccccc21 . 98.8

If you can, please state the reported growth at 10 µM value of Cn1cc(C2=C(c3cn(C)c4ncccc34)C(=O)NC2=O)c2ccccc21 . 27

If you can, please state the reported growth at 10 µM value of Cn1cc(C2=C(c3cn(CCCCCC#N)c4ccccc34)C(=O)N(O)C2=O)c2ccccc21 . 102

If you can, please state the reported growth at 10 µM value of N#CCCCCCn1cc(C2=C(c3cn(CCCCCC#N)c4ccccc34)C(=O)NC2=O)c2ccccc21 . 83.8

###

molecular target: Receptor-interacting serine/threonine-protein kinase 3 (Homo sapiens, UniProt Q9Y572); experiment: Inhibition of recombinant full length human RIPK3 expressed in baculovirus infected Sf9 insect cells assessed as residual activity at 10 uM using MBP as substrate in presence of [gamma-33P]ATP
Sequence (Q9Y572 whole entry, looked up): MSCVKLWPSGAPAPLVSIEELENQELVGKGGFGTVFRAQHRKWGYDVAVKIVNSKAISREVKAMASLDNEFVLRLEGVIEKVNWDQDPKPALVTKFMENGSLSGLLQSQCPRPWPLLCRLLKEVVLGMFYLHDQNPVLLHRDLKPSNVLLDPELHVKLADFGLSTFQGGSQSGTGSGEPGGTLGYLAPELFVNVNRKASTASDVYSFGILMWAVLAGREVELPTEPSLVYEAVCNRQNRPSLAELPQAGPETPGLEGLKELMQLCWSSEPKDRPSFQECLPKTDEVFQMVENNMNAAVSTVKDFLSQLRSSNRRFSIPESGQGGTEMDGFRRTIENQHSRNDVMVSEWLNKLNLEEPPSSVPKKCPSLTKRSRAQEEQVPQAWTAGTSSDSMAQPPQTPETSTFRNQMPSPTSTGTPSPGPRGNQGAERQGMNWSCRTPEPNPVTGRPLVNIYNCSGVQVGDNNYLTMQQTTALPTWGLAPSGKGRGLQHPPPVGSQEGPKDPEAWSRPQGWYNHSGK
measured-property: Activity (%)
The figure you give is taken to be in %; do not add the unit.

Look up Activity with Receptor-interacting serine/threonine-protein kinase 3 (Homo sapiens, UniProt Q9Y572) for this compound: CCn1cc(C2=C(c3cn(C)c4ccccc34)C(=O)N(O)C2=O)c2ccccc21 102

Look up Activity with Receptor-interacting serine/threonine-protein kinase 3 (Homo sapiens, UniProt Q9Y572) for this compound: Cn1cc(C2=C(c3c[nH]c4ccccc34)C(=O)N(O)C2=O)c2ccccc21 100

Look up Activity with Receptor-interacting serine/threonine-protein kinase 3 (Homo sapiens, UniProt Q9Y572) for this compound: CC(C)n1cc(C2=C(c3cn(C)c4ccccc34)C(=O)N(O)C2=O)c2ccccc21 103

Look up Activity with Receptor-interacting serine/threonine-protein kinase 3 (Homo sapiens, UniProt Q9Y572) for this compound: O=C(O)CCCCCn1cc(C2=C(c3c[nH]c4ccccc34)C(=O)N(O)C2=O)c2ccccc21 100

Look up Activity with Receptor-interacting serine/threonine-protein kinase 3 (Homo sapiens, UniProt Q9Y572) for this compound: N#CCCCCCn1cc(C2=C(c3cn(CCCCCC#N)c4ccccc34)C(=O)N(O)C2=O)c2ccccc21 109
